Values were extracted from patent US20230131993A1.

Test: Oxipres accelerated stability test of DragoCalm: Avenanthramide C content by HPLC before and after treatment
Conditions: in DragoCalm before Oxipres treatment; additive 0.10 %

| compound | Avenanthramide C Start (ppm) |
| --- | --- |
| O=C(O)C(O)C(O)C(=O)O (stereo not shown) | 11 |
| CC(=O)c1ccc(O)cc1 [4-Hydroxyacetophenone] | 18 |
| CC(O)C(=O)O (stereo not shown) | 12 |
| O=C(O)CC(O)C(=O)O (stereo not shown) | 11 |
| O=P(O)(O)O[C@H]1[C@H](OP(=O)(O)O)[C@@H](OP(=O)(O)O)[C@H](OP(=O)(O)O)[C@@H](OP(=O)(O)O)[C@H]1OP(=O)(O)O | 14 |
| O=C([O-])CC[C@@H](C(=O)[O-])N(CC(=O)[O-])CC(=O)[O-].[Na+].[Na+].[Na+].[Na+] [Tetrasodium Glutamate Diacetate] | 13 |
| O=C(O)CC(O)(CC(=O)O)C(=O)O | 18 |
